# systemUnderTest: Rac1 (Homo sapiens, UniProt P63000)
# experimentNotes: Competitive binding assay, [3H]GDP-loaded Rho protein titrated with 6-TGDP (FIG. 16A)
# Set-up: made in house; host or cells: E. coli
# experimentalParameters: [3H]GDP-loaded Rho protein 1 μM titrated with 6-TGDP, read-out: appKD for 6-TGDP
parameterMeasured: Kd (µM)
# output: bare number, implied unit µM

## Input Which measured Kd belongs to Nc1nc2c(ncn2[C@@H]2O[C@H](COP(=O)(O)OP(=O)(O)O)[C@@H](O)[C@H]2O)c(=S)[nH]1 [6-TGDP, 6-thioguanosine diphosphate] , tested on Rac1 (Homo sapiens, UniProt P63000)?
## Output 7.9

###

# systemUnderTest: Rac1 (Homo sapiens, UniProt P63000)
# experimentNotes: Guanine nucleotide exchange of [3H]GDP-loaded GTPase with 6-TGDP (FIG. 13A)
# Assay type: binding
# Set-up: made in house; host or cells: E. coli
# experimentalParameters: [3H]GDP-loaded GTPase 1 μM, 6-TGDP 0-2000 μM, 1 h; FIG. 13A; read-out: appKD for 6-TGDP
parameterMeasured: Kd
Answer with the figure and its unit, nothing else.

## Input Looking for the measured Kd of Nc1nc2c(ncn2[C@@H]2O[C@H](COP(=O)(O)OP(=O)(O)O)[C@@H](O)[C@H]2O)c(=S)[nH]1 [6-TGDP, 6-thioguanosine diphosphate] , can you help?
## Output 245 µM

###

# systemUnderTest: RhoC (Homo sapiens, UniProt P08134)
# Sequence (P08134 whole entry): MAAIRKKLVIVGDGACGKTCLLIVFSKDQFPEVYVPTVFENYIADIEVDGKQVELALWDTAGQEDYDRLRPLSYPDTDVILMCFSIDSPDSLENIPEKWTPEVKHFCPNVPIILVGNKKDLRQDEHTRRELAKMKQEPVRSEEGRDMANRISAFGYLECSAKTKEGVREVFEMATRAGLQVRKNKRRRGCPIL
# experimentNotes: Competitive binding assay, [3H]GDP-loaded Rho protein titrated with 6-TGDP (FIG. 16A)
# Design: made in house; host or cells: E. coli
# experimentalParameters: determined within this study; read-out: trueKD for GDP
parameterMeasured: Kd (µM)
# output: bare number, implied unit µM

## Input Which measured Kd belongs to `Nc1nc2c(ncn2[C@@H]2O[C@H](COP(=O)(O)OP(=O)(O)O)[C@@H](O)[C@H]2O)c(=O)[nH]1` , tested on RhoC (Homo sapiens, UniProt P08134)?
## Output 15

###

# systemUnderTest: Ras (Homo sapiens)
# Sequence (P01112 whole entry): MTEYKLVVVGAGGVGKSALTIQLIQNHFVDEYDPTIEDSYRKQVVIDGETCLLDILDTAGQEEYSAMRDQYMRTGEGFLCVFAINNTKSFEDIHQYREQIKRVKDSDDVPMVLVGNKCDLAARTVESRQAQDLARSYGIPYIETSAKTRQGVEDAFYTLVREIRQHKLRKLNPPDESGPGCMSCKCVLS
# experimentNotes: [3H]GDP displacement of 6-TGDP from .NO2-treated 6-TGDP-loaded GTPase with/without DTT (FIG. 13B)
# Format: binding
# experimentalParameters: absence of DTT; calculated by compensation equation; read-out: trueKD [3H]GDP
parameterMeasured: Kd (nM)
# output: bare number, implied unit nM

## Input Looking for the measured Kd of Nc1nc2c(ncn2[C@@H]2O[C@H](COP(=O)(O)OP(=O)(O)O)[C@@H](O)[C@H]2O)c(=O)[nH]1 [GDP] , can you help?
## Output 4.8

###

# systemUnderTest: RhoC C20S (Homo sapiens, UniProt P08134, C20S)
# Sequence (P08134 whole entry C20S): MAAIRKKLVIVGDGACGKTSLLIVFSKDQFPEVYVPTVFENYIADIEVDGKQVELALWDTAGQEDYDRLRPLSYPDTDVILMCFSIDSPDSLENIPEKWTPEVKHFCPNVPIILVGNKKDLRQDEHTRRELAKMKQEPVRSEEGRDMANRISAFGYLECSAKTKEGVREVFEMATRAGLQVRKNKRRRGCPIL
# experimentNotes: Competitive binding assay, [3H]GDP-loaded Rho protein titrated with 6-TGDP (FIG. 16A)
# Set-up: made in house; host or cells: E. coli
# experimentalParameters: calculated by compensation equation; FIG. 16A; fourth value of the list; read-out: trueKD for 6-TGDP
parameterMeasured: Kd (µM)
# output: bare number, implied unit µM

## Input Looking for the measured Kd of Nc1nc2c(ncn2[C@@H]2O[C@H](COP(=O)(O)OP(=O)(O)O)[C@@H](O)[C@H]2O)c(=S)[nH]1 [6-TGDP, 6-thioguanosine diphosphate] , can you help?
## Output 10.5
